Source listed as the supplement of paper PMC10567573.

B1: IQUB (parent)
chain: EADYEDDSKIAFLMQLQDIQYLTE

Variants of: B1
ASSAY: protein stability index of a GFP-peptide fusion (GPS, HEK-293T) (PSI 1-6); higher = more stable;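 further: lentivirally expressed fusions sorted by FACS into six bins by GFP to DsRed ratio, PSI derived from sequencing read proportions per bin multiplied by bin number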
CONDITION LABEL: c terminus: a fixed tail appended
REPORTED PROPERTY: protein stability index
Quick one: just the number, no unit, thanks!

GET /values?readout=protein stability index&item= I10W 3.08

Entry under review: A11G . Reported protein stability index? 3.41

Would you kindly share the measured protein stability index for F12Q ? 4.78

Looking for the measured protein stability index of E24W , can you help? 2.45

So what does the record say about protein stability index for L22V ? 3.42

What value of protein stability index has been reported for the following variant? A2S 2.89

Consider the variant shown here: Q15I What is its recorded protein stability index? 1.98

protein stability index for L13V ? 3.12

# lookup: protein stability index of L22W 3.07

Bench note: what protein stability index did D7P show? 2.67

Which protein stability index reading was recorded for the variant I10G ? 4.13

Consider the variant K9A and give its measured protein stability index. 2.48

// lookup protein stability index for Q17K 2.87

Could you share which protein stability index value was measured for A2P ? 3.73

Look up protein stability index for this variant: L22G 4.5

Give its protein stability index value. Item: L16I 2.95

Please look up its protein stability index: L13R 3.88
